Tested on: A2780
Assay Comment: Inhibition of cisplatin-resistant A2780 cell growth
Assay type: functional, cell-based
Test Conditions: Homo sapiens
Metric Name: log10 of IC50 (log10 of the value in nM)
Transform log10 | Measure IC50 | Unit nM

Observe how each entry below is paired with its result.
O=C1c2c(O)ccc(O)c2C(=O)c2c(NCCN3CCCC(CO)C3)ccc(NCCN3CCCC(CO)C3)c21 (stereo not given): 1.85
CN(C)CCNc1ccc(NCCN2CCCCC2CCl)c2c1C(=O)c1c(O)ccc(O)c1C2=O (stereo not given): 1.84
CN(C)CCNc1ccc(NCCN2CCCC2CCl)c2c1C(=O)c1c(O)ccc(O)c1C2=O (stereo not given): 1.90
CN(C)CCNc1ccc(NCCN2CCC(Cl)C2)c2c1C(=O)c1c(O)ccc(O)c1C2=O (stereo not given): 1.98
COc1cccc2c1C(=O)c1c(O)c3c(c(O)c1C2=O)C[C@@](O)(C(=O)CO)C[C@@H]3O[C@H]1C[C@H](N)[C@H](O)[C@H](C)O1: 0.48

For every item below, please supply its log10 of IC50.
1. CN(C)CCNc1ccc(NCCN2C(CCl)CCCC2CCl)c2c1C(=O)c1c(O)ccc(O)c1C2=O (stereo not given)
2. CN(C)CCNc1ccc(NCCN2CCCC(Cl)C2)c2c1C(=O)c1c(O)ccc(O)c1C2=O (stereo not given)

Response:
2.55
1.80

Request: GET /values?readout=log10 of IC50&system=A2780&item= CN(C)CCNc1ccc(NCCN2CCC(Cl)CC2)c2c1C(=O)c1c(O)ccc(O)c1C2=O
Response: 2.73
